Measured pERK-HEK293-Beta-klotho without HSA [EC50 (nM)] Median Value, listed per entry.
experimentalTarget: T1, human beta-Klotho (human, UniProt Q86Z14 1-1044)
T1 sequence (looked up): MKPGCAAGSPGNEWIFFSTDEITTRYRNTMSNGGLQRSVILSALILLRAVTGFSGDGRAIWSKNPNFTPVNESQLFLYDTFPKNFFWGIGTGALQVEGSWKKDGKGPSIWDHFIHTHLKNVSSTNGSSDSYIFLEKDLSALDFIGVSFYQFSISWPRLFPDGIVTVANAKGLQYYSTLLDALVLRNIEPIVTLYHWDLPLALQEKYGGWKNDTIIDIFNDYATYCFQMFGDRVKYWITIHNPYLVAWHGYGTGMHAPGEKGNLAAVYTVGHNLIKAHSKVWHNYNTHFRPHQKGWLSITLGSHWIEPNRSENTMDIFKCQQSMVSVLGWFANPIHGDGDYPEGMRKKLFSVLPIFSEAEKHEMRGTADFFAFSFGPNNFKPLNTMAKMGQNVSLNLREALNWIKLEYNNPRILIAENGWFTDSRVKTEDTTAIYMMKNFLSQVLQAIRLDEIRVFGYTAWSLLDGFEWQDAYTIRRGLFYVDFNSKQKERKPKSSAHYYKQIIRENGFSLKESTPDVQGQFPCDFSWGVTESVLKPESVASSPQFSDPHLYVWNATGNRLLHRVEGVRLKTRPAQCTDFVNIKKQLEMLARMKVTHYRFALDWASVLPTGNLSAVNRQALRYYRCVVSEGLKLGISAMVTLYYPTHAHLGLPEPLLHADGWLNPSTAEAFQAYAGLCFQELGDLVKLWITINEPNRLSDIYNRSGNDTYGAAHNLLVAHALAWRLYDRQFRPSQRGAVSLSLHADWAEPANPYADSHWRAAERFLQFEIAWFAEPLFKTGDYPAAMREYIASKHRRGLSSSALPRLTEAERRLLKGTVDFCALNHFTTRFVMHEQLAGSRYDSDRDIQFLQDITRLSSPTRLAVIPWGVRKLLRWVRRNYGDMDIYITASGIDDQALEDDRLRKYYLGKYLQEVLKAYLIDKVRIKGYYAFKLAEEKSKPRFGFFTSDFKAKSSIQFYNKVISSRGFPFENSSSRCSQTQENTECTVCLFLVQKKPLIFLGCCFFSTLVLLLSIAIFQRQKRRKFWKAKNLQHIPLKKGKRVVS
experimentSummary: cell-based or functional assay
Give the quantity in nM, number only.

>  <binder>
(K56R, 59R, 69R, 122R, 168L) Gly-FGF21 derivative of Example 48 (ligand, N-alpha-1-[2-(2-{2-[2-(2-{2-[(S)-4-carboxy-4-(17-carboxy-heptadecanoylamino)-butyrylamino]-ethoxy}-ethoxy)-acetylamino]-ethoxy}-ethoxy)-acetyl] on the N-terminal alpha amino group) GHPIPDSSPLLQFGGQVRQRYLYTDDAQQTEAHLEIREDGTVGGAADQSPESLLQLRALRPGVIQILGVRTSRFLCQRPDGALYGSLHFDPEACSFRELLLEDGYNVYQSEAHGLPLHLPGNRSPHRDPAPRGPARFLPLPGLPPALPEPPGILAPQPPDVGSSDPLSLVGPSQGRSPSYAS

>  <observed>
4.6

$$$$
>  <binder>
(K56R, K59R, K69R, K122R, L166F, S167G, M168L, 169aT, P171L, S172E, Q173A, G174V, Y179F, A180E, S181R) Gly-FGF21 (ligand) GHPIPDSSPLLQFGGQVRQRYLYTDDAQQTEAHLEIREDGTVGGAADQSPESLLQLRALRPGVIQILGVRTSRFLCQRPDGALYGSLHFDPEACSFRELLLEDGYNVYQSEAHGLPLHLPGNRSPHRDPAPRGPARFLPLPGLPPALPEPPGILAPQPPDVGSSDPFGLVTGLEAVRSPSFER

>  <observed>
3.3

$$$$
>  <binder>
(S71C, L166F, S167G, M168L, 169aT, P171L, S172E, Q173A, G174V, Y179F, A180E, S181K) Ser-FGF21 (ligand) SHPIPDSSPLLQFGGQVRQRYLYTDDAQQTEAHLEIREDGTVGGAADQSPESLLQLKALKPGVIQILGVKTCRFLCQRPDGALYGSLHFDPEACSFRELLLEDGYNVYQSEAHGLPLHLPGNKSPHRDPAPRGPARFLPLPGLPPALPEPPGILAPQPPDVGSSDPFGLVTGLEAVRSPSFEK

>  <observed>
2.2

$$$$
>  <binder>
S71C Met-FGF21 (ligand) MHPIPDSSPLLQFGGQVRQRYLYTDDAQQTEAHLEIREDGTVGGAADQSPESLLQLKALKPGVIQILGVKTCRFLCQRPDGALYGSLHFDPEACSFRELLLEDGYNVYQSEAHGLPLHLPGNKSPHRDPAPRGPARFLPLPGLPPALPEPPGILAPQPPDVGSSDPLSMVGPSQGRSPSYAS

>  <observed>
3

$$$$

**Q:** Consider the binder shown here: (-1G, 71C, 166F, 167G, 168L, 169aT, 171L, 172E, 173A, 174V, 179F, 180E, 181K) FGF21 derivative of Example 15 (ligand, S-71-({2-[2-(2-{2-[2-(2-{2-[(S)-4-carboxy-4-(17-carboxy-heptadecanoylamino)-butyrylamino]-ethoxy}-ethoxy)-acetylamino]-ethoxy}-ethoxy)-acetyl-amino]-ethylcarbamoyl}-methyl) on the thiol of Cys71) GHPIPDSSPLLQFGGQVRQRYLYTDDAQQTEAHLEIREDGTVGGAADQSPESLLQLKALKPGVIQILGVKTCRFLCQRPDGALYGSLHFDPEACSFRELLLEDGYNVYQSEAHGLPLHLPGNKSPHRDPAPRGPARFLPLPGLPPALPEPPGILAPQPPDVGSSDPFGLVTGLEAVRSPSFEK What is its recorded pERK-HEK293-Beta-klotho without HSA [EC50 (nM)] Median Value?
**A:** 1.6

**Q:** Please report the recorded pERK-HEK293-Beta-klotho without HSA [EC50 (nM)] Median Value for (K56R, K59R, K69R, K122R, L166F, S167G, M168L, 169aT, P171L, S172E, Q173A, G174V, Y179F, A180E, S181R) Ser-FGF21 (ligand) SHPIPDSSPLLQFGGQVRQRYLYTDDAQQTEAHLEIREDGTVGGAADQSPESLLQLRALRPGVIQILGVRTSRFLCQRPDGALYGSLHFDPEACSFRELLLEDGYNVYQSEAHGLPLHLPGNRSPHRDPAPRGPARFLPLPGLPPALPEPPGILAPQPPDVGSSDPFGLVTGLEAVRSPSFER .
**A:** 3.8

**Q:** Look up pERK-HEK293-Beta-klotho without HSA [EC50 (nM)] Median Value: K122C Met-FGF21 derivative of Example 4 (ligand, S-122-[1-(2-{2-[2-(2-{2-[2-(2-{2-[(S)-4-carboxy-4-(17-carboxy-heptadecanoylamino)-butyrylamino]-ethoxy}-ethoxy)-acetylamino]-ethoxy}-ethoxy)-acetylamino]-ethylcarbamoyl}-ethyl)-2,5-dioxo-pyrrolidin-3-yl] on the thiol of Cys122) MHPIPDSSPLLQFGGQVRQRYLYTDDAQQTEAHLEIREDGTVGGAADQSPESLLQLKALKPGVIQILGVKTSRFLCQRPDGALYGSLHFDPEACSFRELLLEDGYNVYQSEAHGLPLHLPGNCSPHRDPAPRGPARFLPLPGLPPALPEPPGILAPQPPDVGSSDPLSMVGPSQGRSPSYAS
**A:** 0.9

Each recorded value in this set is attributed to patent US20100216715A1.
